Reference source for all entries: patent US4065461A

assay: in vivo; settings: mouse, iv
Threshold 200 mg/kg: LD50 strictly smaller gives yes, otherwise no.

Reference set, count: 3
Data request: Lab note: confirm whether the reported LD50 for this compound is below 200 mg/kg, equality not counting. compound: CC(=O)Nc1ccc(OCC(O)CNC(C)C)cc1 (centres unmarked)
Data returned: yes

Data request: API: query returns whether the compound falls strictly under 200 mg/kg in LD50. Query: CC(C)NCC(O)COc1cccnc1 (centres unmarked)
Data returned: no

Data request: Here's an entry: Cc1ccc(OCC(O)CNC(C)C)cn1 (centres unmarked) . Is its LD50 below 200 mg/kg?
Data returned: no

Others:
Data request: Bench note: check whether CC(C)NCC(O)COc1cccnc1Cl (centres unmarked) shows LD50 below 200 mg/kg
Data returned: yes
